test system: HCT-116 colon; assay: NCI-60 one-dose screen, 48 h (100 = growth as untreated, 0 = no growth, -100 = all killed); details: 10 µM unless noted
The panel holds about 83,000 compounds, 20% with a hit somewhere; the sample as a whole holds those more often.
Lab note: anything with growth below 50% is marked 1.0; values at 50% or higher are marked 0.0.

{"columns": ["COMPOUND", "QUALITATIVE LABEL"],
 "data": [
  ["COc1cc(/C=C/C(=O)N2CCN(C(=O)/C=C/c3ccccc3)CC2)cc(OC)c1OC", 0.0],
  ["COc1ccc(-c2noc(N)c2-c2cc(OC)c3c(c2)OCO3)cc1", 1.0],
  ["CO[C@H]1CC(O[C@@H]2/C(C)=C/C[C@@H]3C[C@@H](C[C@]4(CC[C@H](C)[C@@H](C5CCCCC5)O4)O3)OC(=O)[C@@H]3C=C(C)/C(=N/O)[C@H]4OC/C(=C\\C=C\\[C@@H]2C)[C@]43O)O[C@@H](C)C1O (some centres not stated)", 1.0],
  ["COc1ccc(/C(=C2\\O[C@@H]([C@H](O)CO)[C@H]3OC(C)(C)O[C@@H]23)c2cc(OC)c(OC)c(OC)c2)cc1O", 0.0],
  ["N#Cc1c2ccccc2c2n1-c1ccccc1OC(c1ccccc1)C2=O (configuration not stated)", 1.0],
  ["COc1ccc2c(c1)C(=O)c1c-2c(OCCCN(C)C)nc2cc(Br)ccc12", 0.0],
  ["CCCCCCCCSc1ncnc2c1ncn2CO", 0.0],
  ["COc1ccc(-c2oc3cc(O)c(OC)c(O)c3c(=O)c2OC)cc1O", 1.0],
  ["CC(C)(C)c1ccc(S(=O)(=O)O)s1", 0.0],
  ["N#Cc1ccc(NC(=O)Nc2ccc(Oc3ccc(NC(=O)Nc4ccc(C#N)cc4)cc3)cc2)cc1", 1.0],
  ["COc1cccc2c1O/C(=C\\c1c([N+](=O)[O-])ncn1C)C2=O", 0.0],
  ["N#CCCN(CCO)c1ccccc1", 0.0],
  ["COc1ccc(-c2nn(-c3ccccc3)cc2/C=C2\\SC(=S)N(CCc3ccc(O)cc3)C2=O)cc1", 0.0],
  ["COc1ccc(C2=NN(C(=O)c3cc(OC)c(OC)c(OC)c3)C(c3ccc(C#N)cc3)C2)cc1OC (configuration not stated)", 1.0],
  ["C[n+]1ccc(Nc2ccc(NC(=O)c3ccc(Nc4cc[n+](C)c5ccc(N)cc45)cc3)cc2)cc1", 0.0],
  ["CC(=O)Nc1ccc2c(c1)Cc1c(F)c(F)c(F)c(F)c1-2", 0.0],
  ["CCC(CC)NCCCCCNc1cc(OC)cc2cccnc12", 0.0],
  ["CN1COc2ccc3ccccc3c2C1", 0.0],
  ["Nc1ccc2c(c1)/C(=N/O)c1cc([N+](=O)[O-])ccc1-2", 1.0],
  ["CC(NC(=O)C(C)Oc1ccc(Cl)cc1Cl)C(=O)O (configuration not stated)", 0.0],
  ["COc1cc(/C=C2\\COc3ccc(O)c(O)c3C2=O)cc(OC)c1", 1.0],
  ["CC(C)C(=O)Cc1cnccn1", 0.0],
  ["OCCOc1c(Cl)cc(Cl)cc1Cl", 0.0],
  ["Cc1ccc2c(c1)O/C(=C\\c1ccc([N+](=O)[O-])o1)C2=O", 1.0],
  ["CC(C)COCC(CN(Cc1ccccc1)c1ccccc1)N1CCCC1 (configuration not stated)", 1.0],
  ["O=C(/C=C/c1cccnc1)/C=C/c1cccnc1", 1.0]
]}

----------
Test system: T-47D breast
Assay: NCI-60 one-dose screen, 48 h (100 = growth as untreated, 0 = no growth, -100 = all killed)
Conditions: 10 µM unless noted
Procedure: Growth inhibition of the T-47D human tumor cell line is measured as a screen for anti-cancer activity. Cells are grown in 96 well plates and exposed to the test compound for 48 hours. Compounds are tested at a single concentration, which is 10^-5 M for most compounds. The reported endpoint is percent growth (GI% or GIPRCNT), where numbers from 0 - 100% represent growth inhibition, and numbers from -100% - 0 represent cell death. For example, a value of 40 represents 60% growth inhibition. […]
This is part of a sample that, as a whole, favours compounds with a hit. Of some 83,000 tested, about 20% had one in any assay.
Rule: Satisfied for growth not less than 80%, Not satisfied for anything less.

{"columns": ["SMILES NOTATION", "QUALITATIVE LABEL"],
 "data": [
  ["N#Cc1cccc(/C=C(/C(=O)c2ccccc2)c2ccccc2)c1", "Not satisfied"],
  ["Nc1ccc(C2=Nc3cccc4cccc(c34)S2)cc1", "Not satisfied"],
  ["Cc1nnc(Nc2ccc(NC(=O)Nc3ccc(Cl)cc3)cc2)c2ccccc12", "Not satisfied"],
  ["O=C1Nc2ccc(F)cc2/C1=C/c1nc(-c2ccc(F)cc2)n2ccccc12", "Satisfied"],
  ["CC(=O)c1ccc2c3c(n(C)c2c1)CCCC3", "Satisfied"],
  ["COc1ccc2c(c1)C(=O)c1c-2c(OCCN(C)C)nc2cc(OC)ccc12", "Not satisfied"],
  ["O=C(/C=C/c1ccc(O)c(O)c1)N1CCN(c2ccc(Cl)cc2)CC1", "Not satisfied"]
]}

----------
system: PC-3 prostate; assay: NCI-60 one-dose screen, 48 h (100 = growth as untreated, 0 = no growth, -100 = all killed); details: 10 µM unless noted
This is part of a sample that, as a whole, favours compounds with a hit. Of some 83,000 tested, about 20% had one in any assay.
If the reported growth equals or exceeds 50%, assign Y. If not, assign N.

{"columns": ["COMPOUND", "QUALITATIVE LABEL"],
 "data": [
  ["Cn1cc(-c2csc(-c3cn(C)c4ncccc34)n2)c2cc(F)cnc21", "Y"],
  ["N#Cc1c2ccccc2c2n1-c1ccccc1OC(c1ccccc1)C2=O (stereo not drawn)", "N"],
  ["CO[C@H]1/C=C/O[C@@]2(C)Oc3c(C)c(O)c4c(O)c(c(/C=N/N5CCN(C)CC5)c(O)c4c3C2=O)NC(=O)/C(C)=C\\C=C\\C(C)[C@H](O)[C@@H](C)[C@@H](O)[C@@H](C)[C@@H](OC(C)=O)[C@@H]1C (stereo partly drawn)", "Y"],
  ["Cn1cc(-c2nc(-c3c[nH]c4ncccc34)cs2)c2cccnc21", "Y"],
  ["COc1cc2c(cc1OC)C1CCN3C(=O)CCC3N1CC2 (stereo not drawn)", "Y"],
  ["C[C@]12CC[C@@H]3c4ccc(O)cc4CC[C@H]3[C@@H]1CC[C@@H]2NS(=O)(=O)c1cccc(Br)c1", "N"],
  ["O=[N+]([O-])c1ccc(N/N=C\\c2ccccc2[N+](=O)[O-])nc1", "Y"],
  ["O=C(/C=C/c1cccnc1)NCCCCC1CCCN(C(=O)c2ccccc2)C1 (stereo not drawn)", "N"],
  ["O=C(O)C(=O)O", "Y"],
  ["CCCCCCCC/C=C/CCCCCCCC1=NC(C)(C)CN1CCO", "N"],
  ["CC(C)C/C(=N\\NC(=O)c1ccncc1)c1cc(Cl)ccc1O", "N"],
  ["ClC1C2CC(c3ccccc32)C1Cl (stereo not drawn)", "Y"],
  ["CC[C@@H]1OC(=O)[C@H](C)[C@@H](O[C@H]2C[C@@](C)(OC)[C@@H](O)[C@H](C)O2)[C@H](C)[C@@H](O[C@@H]2O[C@H](C)C[C@H](N(C)C)[C@H]2O)[C@](C)(O)C[C@@H](C)[C@@H]2N[C@@H](COCCOC)O[C@H]([C@H]2C)[C@]1(C)O", "Y"],
  ["O=C1C[C@@H]2/C(=C(O)\\C=C\\c3ccccc3)C(=O)C=C[C@@H]2O1", "N"],
  ["O=C(Nc1ccc(OCc2nnc(-c3ccccc3)o2)c(F)c1)Nc1ccc(Cl)c(C(F)(F)F)c1", "N"],
  ["CN(C)c1cccc2c(S(=O)(=O)N[C@H]3CC[C@H]4[C@@H]5CCc6cc(O)ccc6[C@H]5CC[C@]34C)cccc12", "N"],
  ["Clc1cccc(Cc2cn3cc(-c4ccccc4)nc3s2)c1", "Y"],
  ["O=C(c1ccccc1)c1ccccc1Cl", "Y"]
]}

----------
// reported growth for each item listed
system: SF-268 CNS; test: NCI-60 one-dose screen, 48 h (100 = growth as untreated, 0 = no growth, -100 = all killed); details: 10 µM unless noted
This is part of a sample that, as a whole, favours compounds with a hit. Of some 83,000 tested, about 20% had one in any assay.
PROPERTY LABEL: growth (%)

{"columns": ["MOLECULE", "MEASURED"],
 "data": [
  ["C/C(=C\\CCc1ccsc1)CC/C=C(\\C)CCCN1CCN(CCO)CC1", 71.7],
  ["Cc1cccc(Cl)c1NC(=O)c1ccc2nc(NC(=O)NC3CC(C)(C)NC(C)(C)C3)sc2c1", 70.4],
  ["CC(=O)O[C@H]1C(=O)[C@@]2(C)C([C@H](OC(=O)c3ccccc3)[C@]3(O)C[C@H](OC(=O)[C@H](O)[C@@H](NC(=O)c4ccccc4)c4ccccc4)C(C)=C1C3(C)C)[C@]1(OC(C)=O)CO[C@@H]1C[C@@H]2O (stereo partly drawn)", 30.2]
]}
